Test system: H226
measurement.notes: MTS cell viability assay, single agents
Format: cell-based
protocol.conditions: Homo sapiens, NCI-H226, 72 h, read-out: IC50 (concentration of drug required to inhibit cell growth by 50%)
readout.type: pIC50
Just the number, please; pIC50 means minus log10 of the concentration in mol/L.

Which pIC50 reading was recorded for the compound C/C1=C/CC(/C(C)=C/c2csc(C)n2)OC(=O)C[C@H](O)C(C)(C)C(=O)[C@H](C)[C@@H](O)[C@@H](C)CCC1 (stereo partly shown) [Epothilone D, epothilone D] ?
7.30
